Numbers sourced from patent US11130769B2.

Biological target: MCL-1 (Homo sapiens (Human))
Sequence (Q07820 whole entry): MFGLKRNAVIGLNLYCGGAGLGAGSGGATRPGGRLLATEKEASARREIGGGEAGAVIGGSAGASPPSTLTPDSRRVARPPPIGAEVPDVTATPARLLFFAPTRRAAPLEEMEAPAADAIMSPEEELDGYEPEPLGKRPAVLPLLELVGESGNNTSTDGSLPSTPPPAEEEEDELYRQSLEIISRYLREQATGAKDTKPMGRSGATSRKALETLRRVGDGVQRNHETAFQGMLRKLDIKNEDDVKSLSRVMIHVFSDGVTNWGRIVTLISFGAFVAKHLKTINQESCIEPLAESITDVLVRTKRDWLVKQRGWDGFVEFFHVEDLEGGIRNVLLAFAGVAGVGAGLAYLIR
Assay: Cell free Mcl-1:Bim affinity assay (fluorescence polarization competition)
Format: binding
Conditions: 15 nM MCL-1, 5 nM FITC-Bim, 1 hour at room temperature; class symbols; read-out: BIM_Ki
Experimental: The binding affinity of each compound was measured via a fluorescence polarization competition assay, in which the compound competes for the same binding site with the ligand, and thus leads to a dose-dependent anisotropy reduction. The tracer ligand utilized was a fluorescein isothiocyanate labelled peptide (FITC-[…]) derived from Bim (GenScript). […]
pKi: −log10 of the molar value.
readout-label: pKi

compound	pKi
CC1(C)OC/C=C/[C@H](OC(=O)NCCN2CCOCC2)[C@@H]2CC[C@H]2CN2C[C@@]3(CCCc4cc(Cl)ccc43)COc3ccc(cc32)S(=O)(=O)NC1=O	> 9.00
CN(C)C(=O)O[C@@H]1/C=C/COC(C)(C)C(=O)NS(=O)(=O)c2ccc3c(c2)N(C[C@@H]2CC[C@H]21)C[C@@]1(CCCc2cc(Cl)ccc21)CO3	> 9.00
CN(C(=O)O[C@H]1/C=C/COC(C)(C)C(=O)NS(=O)(=O)c2ccc3c(c2)N(C[C@@H]2CC[C@H]21)C[C@@]1(CCOc2cc(Cl)ccc21)CO3)C1COC1	> 9.00

Supply reported pKi belonging to this compound: CO[C@@H]1/C=C/CN(C(C)=O)[C@H](C)C(=O)NS(=O)(=O)c2ccc3c(c2)N(C[C@@H]2CC[C@H]21)C[C@@]1(CCCc2cc(Cl)ccc21)CO3 7.00 to 9.00

Consider the compound CN(C(=O)O[C@H]1/C=C/CN(C)C2(CCC2)C(=O)NS(=O)(=O)c2ccc3c(c2)N(C[C@@H]2CC[C@H]21)C[C@@]1(CCCc2cc(Cl)ccc21)CO3)[C@H]1CCOC1 . State its measured pKi. > 9.00

Fill in pKi for record COCCNC(=O)O[C@H]1/C=C/COC(C)(C)C(=O)NS(=O)(=O)c2ccc3c(c2)N(C[C@@H]2CC[C@H]21)C[C@@]1(CCCc2cc(Cl)ccc21)CO3 > 9.00

Given the compound O=C1Cn2ccc(n2)CC(=O)N2CCC(C2)CN2C[C@@]3(CCCc4cc(Cl)ccc43)COc3ccc(cc32)S(=O)(=O)N1 (some centres unmarked) , write its reported pKi. 7.00 to 9.00

Provide pKi value for the following compound: CN(C)CCO[C@@H]1/C=C/COC(C)(C)C(=O)NS(=O)(=O)c2ccc3c(c2)N(C[C@@H]2CC[C@H]21)C[C@@]1(CCCc2cc(Cl)ccc21)CO3 > 9.00

Please supply the value of reported pKi for the item [2H]C([2H])([2H])N1C/C=C/[C@H](OC(=O)N(C)C)[C@@H]2CC[C@H]2CN2C[C@@]3(CCCc4cc(Cl)ccc43)COc3ccc(cc32)S(=O)(=O)NC(=O)C1(C)C > 9.00

Give reported pKi value for CN1CC[C@@H](NC(=O)O[C@H]2/C=C/COC(C)(C)C(=O)NS(=O)(=O)c3ccc4c(c3)N(C[C@@H]3CC[C@H]32)C[C@@]2(CCCc3cc(Cl)ccc32)CO4)C1 > 9.00

Determine its reported pKi: CCN(CC)CCO[C@H]1/C=C/COC(C)(C)C(=O)NS(=O)(=O)c2ccc3c(c2)N(C[C@@H]2CC[C@H]21)C[C@@]1(CCCc2cc(Cl)ccc21)CO3 > 9.00

###

The following compounds are listed with their measured IC50 values.
test system: H929 cells; experiment: Cell viability assay (H929 10 FBS); format: cell-based; settings: Homo sapiens, NCI-H929, 24 hours, read-out: H929_10FBS IC50

compound	IC50
CCNC(=O)O[C@H]1/C=C/CN(C)C(C)(C)C(=O)NS(=O)(=O)c2ccc3c(c2)N(C[C@@H]2CC[C@H]21)C[C@@]1(CCCc2cc(Cl)ccc21)CO3	< 500 nM

Specify IC50 for CN1C(=O)OC[C@@H]2CC[C@H]2CN2C[C@@]3(CCCc4cc(Cl)ccc43)COc3ccc(cc32)S(=O)(=O)NC(=O)N2CC[C@@H]1C2 , system H929 cells. > 1000 nM

Provide IC50, recorded with H929 cells, of [2H]C([2H])([2H])N1C/C=C/[C@H](OC(=O)N(C)C)[C@@H]2CC[C@H]2CN2C[C@@]3(CCCc4cc(Cl)ccc43)COc3ccc(cc32)S(=O)(=O)NC(=O)C1(C)C < 500 nM

###

Test system: H929 cells
Assay: Cell viability assay (H929 10 FBS)
Assay type: cell-based
Details: Homo sapiens, NCI-H929, 24 hours, read-out: H929_10FBS IC50
Experimental: Cell Viability Assay (H929 10 FBS) Dispense 10 μL aliquot of prepared H929 cells (1:1 ratio of cells:Trypan Blue (#1450013, Bio-Rad)) onto cell counting slide (#145-0011, Bio-Rad) and obtain cell density and cell viability using cell counter (TC20, Bio-Rad). Remove appropriate volume of resuspended cells from culture flask to accommodate 4000 cells/well @ 10 μL/well. […] Read plates with microplate reader (PheraStar, BMG Labtech) using 384 well luminescence mode.
readout-label: IC50

Check out these entries, answers already filled in.
molecule	reading
CC1(C)OC/C=C/[C@H](OC(=O)N2CC(F)C2)[C@@H]2CC[C@H]2CN2C[C@@]3(CCCc4cc(Cl)ccc43)COc3ccc(cc32)S(=O)(=O)NC1=O [Example 165]	< 500 nM
CN1CCCN(C(=O)O[C@H]2/C=C/COC(C)(C)C(=O)NS(=O)(=O)c3ccc4c(c3)N(C[C@@H]3CC[C@H]32)C[C@@]2(CCCc3cc(Cl)ccc32)CO4)CC1 [Example 54]	< 500 nM
CC1(C)OC/C=C/[C@@H](OCCN2CC(F)(F)C2)[C@@H]2CC[C@H]2CN2C[C@@]3(CCCc4cc(Cl)ccc43)COc3ccc(cc32)S(=O)(=O)NC1=O [Example 272]	< 500 nM

Give recorded IC50. O=C1N[C@@H]2CCN(C2)C(=O)NS(=O)(=O)c2ccc3c(c2)N(C[C@@H]2CC[C@H]2CO1)C[C@@]1(CCCc2cc(Cl)ccc21)CO3 [Example 102] > 1000 nM

Provide only the value of recorded IC50 for CC(=O)NS(=O)(=O)c1ccc2c(c1)N(Cc1cnn(C)c1)CC1(CCCc3cc(Cl)ccc31)CO2 (stereo not drawn) [Example 9] > 1000 nM

Provide only the value of recorded IC50 for CN(C)C(=O)O[C@H]1/C=C/CN2CCC[C@H]2C(=O)NS(=O)(=O)c2ccc3c(c2)N(C[C@@H]2CC[C@H]21)C[C@@]1(CCCc2cc(Cl)ccc21)CO3 [Example 294] < 500 nM

###

system: H929 cells; assay: Cell viability assay (H929 10 FBS); type: cell-based; details: Homo sapiens, NCI-H929, 24 hours, read-out: H929_10FBS IC50
readout-label: IC50

Example results:
CN(C(=O)O[C@H]1/C=C/COC(C)(C)C(=O)NS(=O)(=O)c2ccc3c(c2)N(C[C@@H]2CC[C@H]21)C[C@@]1(CCOc2cc(Cl)ccc21)CO3)C1CCOCC1 < 500 nM
CN(C)C(=O)O[C@H]1/C=C/CNC(C)(C)C(=O)NS(=O)(=O)c2ccc3c(c2)N(C[C@@H]2CC[C@H]21)C[C@@]1(CCCc2cc(Cl)ccc21)CO3 < 500 nM

For CN(C(=O)O[C@H]1/C=C/CN(C)C2(CCC2)C(=O)NS(=O)(=O)c2ccc3c(c2)N(C[C@@H]2CC[C@H]21)C[C@@]1(CCCc2cc(Cl)ccc21)CO3)[C@H]1CCOC1 , write its IC50. < 500 nM

###

tested on: H929 cells; experiment: Cell viability assay (H929 10 FBS); type: cell-based; settings: Homo sapiens, NCI-H929, 24 hours, read-out: H929_10FBS IC50
pIC50: −log10 of the molar value.
readout-label: pIC50

Some solved entries appear below for comparison.
O=C1Cc2cccc(c2)OC[C@@H]2CC[C@H]2CN2C[C@@]3(CCCc4cc(Cl)ccc43)COc3ccc(cc32)S(=O)(=O)N1 < 6.00
CN(C)CCO[C@H]1/C=C/COC(C)(C)C(=O)NS(=O)(=O)c2ccc3c(c2)N(C[C@@H]2CC[C@H]21)C[C@@]1(CCCc2cc(Cl)ccc21)CO3 > 6.30

Give reported pIC50 value for CN(C(=O)O[C@H]1/C=C/COC2(CCC2)C(=O)NS(=O)(=O)c2ccc3c(c2)N(C[C@@H]2CC[C@H]21)C[C@@]1(CCCc2cc(Cl)ccc21)CO3)C1CCOCC1 > 6.30

###

tested on: H929 cells; assay: Cell viability assay (H929 10 FBS); type: cell-based; details: Homo sapiens, NCI-H929, 24 hours, read-out: H929_10FBS IC50
Here the recorded IC50 is given for each entry.

Worked examples follow.
molecule	system-tested	readout-label	reading
CO[C@@H]1/C=C/C[C@H](C)[C@@H](CO)C(=O)NS(=O)(=O)c2ccc3c(c2)N(C[C@@H]2CC[C@H]21)C[C@@]1(CCCc2cc(Cl)ccc21)CO3 [Example 94]	H929 cells	IC50	> 1000 nM
CN(C(=O)O[C@H]1/C=C/CN(C)C2(CCC2)C(=O)NS(=O)(=O)c2ccc3c(c2)N(C[C@@H]2CC[C@H]21)C[C@@]1(CCCc2cc(Cl)ccc21)CO3)C1CCOCC1 [Example 239]	H929 cells	IC50	< 500 nM
CN1C/C=C/[C@H](OCCN2CC[C@@H](F)C2)[C@@H]2CC[C@H]2CN2C[C@@]3(CCCc4cc(Cl)ccc43)COc3ccc(cc32)S(=O)(=O)NC(=O)C1(C)C [Example 276]	H929 cells	IC50	< 1000 nM
O=C1Cc2cccc(c2)S(=O)(=O)C[C@@H]2CC[C@H]2CN2C[C@@]3(CCCc4cc(Cl)ccc43)COc3ccc(cc32)S(=O)(=O)N1 [Example 98]	H929 cells	IC50	> 1000 nM
CN1C/C=C/[C@H](OC(=O)N[C@H]2CCOC2)[C@@H]2CC[C@H]2CN2C[C@@]3(CCCc4cc(Cl)ccc43)COc3ccc(cc32)S(=O)(=O)NC(=O)C12CCC2 [Example 295]	H929 cells	IC50	> 1000 nM

Supply reported IC50 belonging to this molecule: COC1CN(C(=O)O[C@H]2/C=C/CN(C)C3(CCC3)C(=O)NS(=O)(=O)c3ccc4c(c3)N(C[C@@H]3CC[C@H]32)C[C@@]2(CCCc3cc(Cl)ccc32)CO4)C1 [Example 238] < 500 nM

Annotate the molecule CO[C@@H]1/C=C\CNC(=O)NS(=O)(=O)c2ccc3c(c2)N(C[C@@H]2CC[C@H]21)C[C@@]1(CCCc2cc(Cl)ccc21)CO3 [Example 130] with its measured IC50. > 1000 nM

Query IC50 for CO[C@H]1/C=C/COCC(=O)NS(=O)(=O)c2ccc3c(c2)N(C[C@@H]2CC[C@H]21)C[C@@]1(CCCc2cc(Cl)ccc21)CO3 [Example 111] > 1000 nM

Determine from records and report IC50 for CN1CCN(CCO[C@H]2/C=C/COC(C)(C)C(=O)NS(=O)(=O)c3ccc4c(c3)N(C[C@@H]3CC[C@H]32)C[C@@]2(CCCc3cc(Cl)ccc32)CO4)CC1 [Example 259] < 500 nM

Answer with the recorded IC50 for the molecule listed here: Cc1ccc(CC(=O)NS(=O)(=O)c2ccc3c(c2)N(CC2CCC2)C[C@@]2(CCCc4cc(Cl)ccc42)CO3)cn1 [Example 17] > 1000 nM

Output measured IC50 for this item: CONC(=O)O[C@H]1/C=C/COC(C)(C)C(=O)NS(=O)(=O)c2ccc3c(c2)N(C[C@@H]2CC[C@H]21)C[C@@]1(CCCc2cc(Cl)ccc21)CO3 [Example 167] < 500 nM
